Hey, just so you know, these numbers are from PubChem BioAssay AID304.

# Tested on: Lymphosarcoma Mecca ip in C3AKF1 mice, survival T/C%
# assay-protocol: NCI In Vivo Anticancer Drug Screen. Data for tumor model Lymphosarcoma Mecca (intraperitoneal) in C3AKF1 (CHKRF1) mice
# recorded-conditions: endpoint: survival time, mean or median; dose: 50.0 mg/kg/injection; schedule: Q01DX010 (ip); vehicle: saline; higher = longer survival
Inconclusive results and toxic doses are left out.
reported-property: T/C

See these solved cases before continuing.
{"molecule": "CCN(CC)CCNc1ccc(C)c2sc3ccccc3c(=O)c12", "measured-value": "105 % of control"}
{"molecule": "NC(=O)n1cccn1", "measured-value": "100 % of control"}
{"molecule": "Nc1nc(=O)n(C2CC(O)C(CO)O2)cc1Br (stereo not given)", "measured-value": "100 % of control"}
{"molecule": "CS(=O)(=O)OCCCCOS(C)(=O)=O", "measured-value": "95 % of control"}

Could you now consider this next molecule?
Ask: Tell me the measured T/C of OC(CBr)C(O)C(O)C(O)CBr (stereo not given) , please.
Reply: 100 % of control

====

# Tested on: Lymphosarcoma Mecca ip in C3AKF1 mice, survival T/C%
# assay-protocol: NCI In Vivo Anticancer Drug Screen. Data for tumor model Lymphosarcoma Mecca (intraperitoneal) in C3AKF1 (CHKRF1) mice
# recorded-conditions: endpoint: survival time, mean or median; dose: 8.0 mg/kg/injection; schedule: Q01DX010 (ip); vehicle: saline
Toxic doses and inconclusive results are not listed. Rule for the calls: active = survival T/C of 150% or more; inactive = T/C below 125% in these data.
Reply using exactly one outcome from t = active, f = inactive

{"molecule": "Nc1nc(F)nc2c1ncn2C1OC(CO)C(O)C1O (stereo not drawn)", "class-label": "f"}
{"molecule": "O=C(Nc1ccc(C2=NCCCN2)cc1)c1ccc(C(=O)Nc2ccc(C3=NCCCN3)cc2)cc1", "class-label": "t"}
{"molecule": "CC(CCC(C)OS(C)(=O)=O)OS(C)(=O)=O (stereo not drawn)", "class-label": "f"}
{"molecule": "O=C(Nc1ccc(C2=NCCN2)cc1)c1ccc(C(=O)Nc2ccc(C3=NCCN3)cc2)c([N+](=O)[O-])c1", "class-label": "f"}
{"molecule": "NC(Cc1ccc(N(CCCl)CCCl)cc1)C(=O)O (stereo not drawn)", "class-label": "t"}

Ask: Kindly provide the recorded test outcome for the following molecule: O=C(Nc1ccc(C2=NCCN2)cc1)c1cccc(C(=O)Nc2ccc(C3=NCCN3)cc2)c1
Reply: f

Ask: How did this test come out for Nc1nc(SCc2ccccc2)c2[nH]cnc2n1 ?
Reply: f

Ask: Could you kindly confirm the outcome this assay logged for c1ccc(CNc2ncnc3[nH]ncc23)cc1 ?
Reply: t
